Target: UniProt:Q00960
endpointName: IC50 (nM)
Answers are plain numbers, in nM.

| compoundString | testResult |
| --- | --- |
| O=C(CN1CCC(Cc2ccccc2)CC1)c1c[nH]c2ccccc12 | 769 |

Alright, here's another compound for you.
Prompt line: Recorded IC50 of "O=C(C(=O)N1CCC(Cc2ccccc2)CC1)c1c[nH]c2ccc(O)cc12" , please.
Response line: 2660

* * *

Biological target: Glutamate receptor ionotropic, NMDA 2B (Rattus norvegicus, UniProt Q00960)
Sequence (Q00960 whole entry): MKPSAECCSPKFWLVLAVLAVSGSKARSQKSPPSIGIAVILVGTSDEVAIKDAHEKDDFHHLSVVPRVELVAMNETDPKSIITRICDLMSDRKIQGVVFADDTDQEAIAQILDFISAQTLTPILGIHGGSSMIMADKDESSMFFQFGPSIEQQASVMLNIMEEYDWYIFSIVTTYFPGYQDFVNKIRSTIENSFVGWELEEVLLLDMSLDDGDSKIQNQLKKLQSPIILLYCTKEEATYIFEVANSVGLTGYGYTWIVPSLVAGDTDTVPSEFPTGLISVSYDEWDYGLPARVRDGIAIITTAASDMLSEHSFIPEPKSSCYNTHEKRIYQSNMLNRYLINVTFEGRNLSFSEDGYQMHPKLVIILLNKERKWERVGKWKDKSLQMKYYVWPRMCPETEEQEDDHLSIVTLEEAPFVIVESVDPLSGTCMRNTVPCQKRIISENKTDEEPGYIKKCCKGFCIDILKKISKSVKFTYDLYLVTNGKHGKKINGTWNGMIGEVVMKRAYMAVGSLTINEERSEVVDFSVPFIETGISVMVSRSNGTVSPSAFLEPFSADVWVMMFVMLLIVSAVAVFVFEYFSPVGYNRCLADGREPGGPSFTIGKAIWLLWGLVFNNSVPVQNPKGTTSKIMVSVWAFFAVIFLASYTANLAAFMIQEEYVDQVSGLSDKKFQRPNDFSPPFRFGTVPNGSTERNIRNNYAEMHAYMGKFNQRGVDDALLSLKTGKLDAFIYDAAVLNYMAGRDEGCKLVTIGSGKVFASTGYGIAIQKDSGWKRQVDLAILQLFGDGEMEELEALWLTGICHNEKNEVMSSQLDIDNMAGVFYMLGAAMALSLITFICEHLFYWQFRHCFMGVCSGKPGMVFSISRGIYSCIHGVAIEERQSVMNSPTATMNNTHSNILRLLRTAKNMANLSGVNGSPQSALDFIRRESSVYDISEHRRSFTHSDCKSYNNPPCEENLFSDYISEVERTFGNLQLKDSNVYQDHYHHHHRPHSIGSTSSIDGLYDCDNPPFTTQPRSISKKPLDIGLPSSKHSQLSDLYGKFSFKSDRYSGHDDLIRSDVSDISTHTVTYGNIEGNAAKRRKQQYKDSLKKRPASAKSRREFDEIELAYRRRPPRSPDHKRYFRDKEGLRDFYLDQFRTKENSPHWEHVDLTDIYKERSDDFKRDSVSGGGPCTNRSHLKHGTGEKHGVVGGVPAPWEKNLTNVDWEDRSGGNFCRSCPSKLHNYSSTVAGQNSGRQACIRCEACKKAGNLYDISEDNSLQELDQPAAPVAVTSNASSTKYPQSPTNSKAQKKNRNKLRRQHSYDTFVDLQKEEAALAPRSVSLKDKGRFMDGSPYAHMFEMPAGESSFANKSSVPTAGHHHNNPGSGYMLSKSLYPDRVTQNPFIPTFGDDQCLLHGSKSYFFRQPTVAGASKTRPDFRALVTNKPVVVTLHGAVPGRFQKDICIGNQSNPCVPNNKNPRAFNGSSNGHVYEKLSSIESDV
endpointName: Ki (nM)
Numbers only, in nM.

Prompt line: Recorded Ki of "O=C(CN1CCC(Cc2ccccc2)CC1)c1c[nH]c2ccc(O)cc12" , please.
Response line: 23
